Details: buffer, pH 10
Description: Intrinsic aqueous solubility at pH 10 by shake-flask method
metric_name: logS0
Form rule: numeric answer, no unit written next to it.

Past entries and their recorded results:
C=CCc1ccccc1OCC(O)CNC(C)C (stereo unspecified)    -2.83
COc1ccc2[nH]c([S+]([O-])Cc3ncc(C)c(OC)c3C)nc2c1 (stereo unspecified)    -3.4
O=C(O)c1ccccc1O    -1.8
CC(C(=O)O)c1ccc(N2Cc3ccccc3C2=O)cc1 (single isomer, unassigned; (+))    -4.72
CCCNC(=O)NS(=O)(=O)c1ccc(Cl)cc1 [CHLORPROPAMIDE]    -3.3
CC(C)Nc1cccnc1N1CCN(C(=O)c2cc3cc(NS(C)(=O)=O)ccc3[nH]2)CC1    -5.74
C=CCC1(C(C)CCC)C(=O)NC(=O)NC1=O (stereo unspecified)    -2.36
CC(=O)N1CCN(c2ccc(OC[C@H]3CO[C@](Cn4ccnc4)(c4ccc(Cl)cc4Cl)O3)cc2)CC1    -3.8
CCCCCC1(CC)C(=O)NC(=O)NC1=O    -2.34
CCN(CC)CCOC(=O)c1ccc(N)cc1    -1.78

Switching to the query record.
Entry `COC(=O)[C@H]1[C@@H](OC(=O)c2ccccc2)C[C@@H]2CC[C@H]1N2C` needs its logS0 filled in; supply it.
-2.25

###

Assay: Dissociation constant, pKa of the compound
Format: physicochemical
metric_name: pKa
Lab note: write the figure by itself, no unit.

NCCN1C(=O)CN=C(c2ccccc2F)c2cc(Cl)ccc21    11.6
COc1ccc2[nH]c([S+]([O-])Cc3ncc(C)c(OC)c3C)nc2c1 (stereo not drawn)    8.9
CCOC(=O)c1ccc(O)cc1    8.3
CCCNC(=O)NS(=O)(=O)c1ccc(Cl)cc1 [CHLORPROPAMIDE]    4.8
C=CCC1(C(C)CCC)C(=O)NC(=O)NC1=O (stereo not drawn)    7.8
CC(C(=O)O)c1ccc(N2Cc3ccccc3C2=O)cc1 (single isomer, unassigned; (+))    4.6

Answer with reported pKa of CC(C)N(CCC(C(N)=O)(c1ccccc1)c1ccccn1)C(C)C (stereo not drawn) [DISOPYRAMIDE]
10.1

Consider the molecule O=C1Nc2ccc(Cl)cc2C(c2ccccc2Cl)=NC1O (stereo not drawn) and give its recorded pKa.
11.5

###

Details: buffer, pH 10
metric_name: logS0
Could you respond with only the numeric value?

For orientation, consider the following solved cases.
CC/C=C(\C)C1(CC)C(=O)NC(=O)NC1=O [VINBARBITAL]    -2.3
CN1C(C(=O)Nc2ccccn2)=C(O)c2ccccc2S1(=O)=O [PIROXICAM]    -4.03
C[C@]12C[C@H](O)[C@H]3[C@@H](CCC4=CC(=O)CC[C@@]43C)[C@@H]1CC[C@@H]2C(=O)CO [CORTICOSTERONE]    -3.28
CCN1c2ccccc2N(C)C(=O)c2cccnc21    -3.32
COc1cc(NC(C)CCCN)c2ncccc2c1 (centres undefined) [PRIMAQUINE]    -2.52
CC(=O)OCC(=O)[C@@]1(O)[C@H](OC(C)=O)C[C@H]2[C@@H]3CCC4=CC(=O)C=C[C@]4(C)[C@@]3(F)[C@@H](O)C[C@@]21C [TRIAMCINOLONE DIACETATE]    -4.31
CC(=O)OCC(=O)[C@@]1(O)CC[C@H]2[C@@H]3CCC4=CC(=O)C=C[C@]4(C)[C@H]3[C@@H](O)C[C@@]21C [PREDNISOLONE ACETATE]    -4.37
NCCN1C(=O)CN=C(c2ccccc2F)c2cc(Cl)ccc21 [DESALKYLFLURAZEPAM]    -3.72

Quote logS0 reported for `Cc1ccc2c(c1)C(=O)Nc1cc(N)ccc1O2` please.
-3.93

Give the value of logS0 reported for the following: Cc1ccccc1N1C(=O)c2cc(S(N)(=O)=O)c(Cl)cc2NC1C (centres undefined) [METOLAZONE]
-4.33

Please give the documented logS0 of CCC[S+]([O-])CCCN(CC)CC(O)COc1ccc(C#N)cc1 (centres undefined) [ALMOKALANT]
-1.17

Complete the entry with logS0 for CCC1(C2=CC3CCC(C2)C3)C(=O)NC(=O)NC1=O (centres undefined) [REPOSAL]
-2.7

State its logS0 for this molecule: `C=CCC1(CCCC)C(=O)NC(=O)NC1=O`
-2.11
